Quick list: emission maximum per entry.
experiment_description: solvent given as SMILES
measurement_context: in ClCCl
Put your answer as a value accompanied by its unit after it.

Below, 5 compounds whose answers are already recorded.
O=C1c2ccccc2-c2c(-c3cc(Cl)ccc3O)[nH]c(=O)n21 : 475 nm
CCN(CC)c1ccc(/N=N/c2nc3ccc(Br)cc3s2)cc1 : 578 nm
Cc1cc(O)c(C(C)C)cc1/N=C/c1ccc(O)cc1 : 412 nm
Cc1cccc2cc(C)c3c4ccccc4[nH]c3c12 : 364 nm
CCCCCCc1cc2c3c(c1)c(=C1c4ccccc4S(=O)(=O)c4ccccc41)c1cc(CCCCCC)cc4c1N3c1c(cc(CCCCCC)cc1c4=C1c3ccccc3S(=O)(=O)c3ccccc31)c2=C1c2ccccc2S(=O)(=O)c2ccccc21 : 528 nm

Prompt: Could you tell me which emission maximum is on file for `CCc1ccc(/C=N/c2cc(C(C)C)c(O)cc2C)cc1` ?
Response: 420 nm
